- EXPERIMENT_DESCRIPTION: amyloid nucleation score (Sup35N fusion, yeast selection) (log enrichment); library NNK1; higher = more nucleation; inactive = no reads after selection;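 note: zero at mode of non-aggregating sequences after 7 days selection at 30°C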
The threshold is inclusive: amyloid nucleation score of exactly -0.3 counts as 1 (yes); values below receive 0 (no).

Qu. Reported amyloid nucleation score at or above -0.3? IIMRTMHHAKRLSGLKP
Ans. 1 (yes)

Qu. Reported amyloid nucleation score at or above -0.3? GVTYNLK
Ans. 0 (no)

* * *

- EXPERIMENT_DESCRIPTION: amyloid nucleation score (Sup35N fusion, yeast selection) (log enrichment); library NNK1; higher = more nucleation; inactive = no reads after selection
PROPERTY_MEASURED: amyloid nucleation score
Numbers only.

RCCIIDLFS    4.87

# per-item lookup of amyloid nucleation score; items listed below
1. LDQIQIFSEIGVFRLVCQHI
2. RTPCLSESGPFSGFQHPGDI

Ans.
1: -0.164; 2: -0.66

# per-item lookup of amyloid nucleation score; items listed below
1. SVNVRVTDYKYRGLFACAFG
2. ARVGFTLT
3. TCRESMRYVDNGLAFYSWFY
4. QVNFNRRFNTQAIFNLSGVP
5. SGSMVRDRW

Ans.
0.529
-0.265
-0.983
0.947
1.83

# per-item lookup of amyloid nucleation score; items listed below
1. VGIILRLVQYSDEYYSCYAG
2. YTAACTRSNCYMCPVSAVGW
3. NADCVTMVYSKLVWLPVEDT
4. ACVLTAKMAARRIHMWQGLF

Ans.
1: -2.62; 2: 0.214; 3: 0.458; 4: -0.744

# per-item lookup of amyloid nucleation score; items listed below
1. QCVFYMWVSFEELK
2. GMRVLQIFGTGGGDSNTRGD
3. FCLFKFDCSLSWPQVYRYRL
4. WASELVRHHNDKINCSLRCG
5. CNKNNCWCYHCSYQVWHALY
6. DPLRMILVISFRMVRFIQWP
7. TGYRSTYLNEVTPIRIMPHR

Ans.
1: 0.418; 2: 0.84; 3: 1.09; 4: -0.253; 5: 0.381; 6: 0.072; 7: 0.905

* * *

- EXPERIMENT_DESCRIPTION: amyloid nucleation score (Sup35N fusion, yeast selection) (log enrichment); library NNK1; higher = more nucleation; inactive = no reads after selection
For each of the substances below, state its amyloid nucleation score.
Answers are plain numbers.

Here's what some known entries look like.
RFHCYWTPRTLSMASSTPWM    0.47
LCSMTKTNVVRSECRVLTRR    1.86
RSHGKAEFEHVGLKFIAG    -0.903
PNSERREAMVIMFRW    0.633
ALFVVCYRYFVESGTKWRRT    -0.009
ELTYFGNI    1.5
ESMDGFARR    0.654
YGLPLWCNMCSRSANRC    0.365

# per-item lookup of amyloid nucleation score; items listed below
1. DLCTNYQWFRAAYCYMSRVY
2. WYRTRIQRRIFFNRAIYSTA
3. AEWLWEVGGMGCQVKGEEAR
4. HYSGIVWCSVREL
5. GRIQCHYGLSVYNGFESGTG
6. YMDVTGDVK
7. KSRWHMLLNS
8. LVASSFDYMMLSSVGRGYGL

Ans.
1. 1.2
2. 0.368
3. -0.34
4. 1.72
5. 0.279
6. -0.067
7. 0.051
8. -0.245
